Field: Kd. Provide a value for each of the binders that follow.
# testedTarget: T1, PD-1 molecule (refolded, purified and biotinylated PD-1 of Example 2) (UniProt Q15116 33-150, biotinylated with BirA enzyme (site not stated))
# T1 construct: also called Programmed Death-1
# T1 sequence (Q15116 33-150 limits assumed): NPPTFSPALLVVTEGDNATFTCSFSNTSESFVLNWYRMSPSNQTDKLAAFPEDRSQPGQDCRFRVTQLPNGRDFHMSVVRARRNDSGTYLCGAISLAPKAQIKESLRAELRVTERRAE
# procedureText: SPR (BIAcore T200), single-cycle kinetics; biotinylated PD-1 captured via streptavidin, PDL-1 variant in solution
Give the value; after it, write the unit.

Entry high affinity PDL-1 molecule L2F5 (ligand) FTVTVPKDLYVVEYGSNMTIECKFPVEKQLDLAALEVHWFMEDKNISSFVHGEEDLKVQHSSYRQRARLLKDQLSLGNAALQITDVKLQDAGVYRCMISYGGADYKRITVKVNAPYNKINQRILVVDPVTSEHELTCQAEGYPKAEVIWTSSDHQVLSGKTTTTNSKREEKLFNVTSTLRINTTTNEIFYCTFRRLDPEENHTAELVIPEL ; Kd = 10.1 µM

Per the record, high affinity PDL-1 molecule L22D5 (ligand) FTVTVPKDLYVVEYGSNMTIECKFPVEKQLDLAALQVHWFMEDKNIFSFVHGEEDLKVQHSSYRQRARLLKDQLSLGNAALQITDVKLQDAGVYRCMISYGGADYKRITVKVNAPYNKINQRILVVDPVTSEHELTCQAEGYPKAEVIWTSSDHQVLSGKTTTTNSKREEKLFNVTSTLRINTTTNEIFYCTFRRLDPEENHTAELVIPEL has Kd of 6.48 µM

These measurements were taken from patent US20180291081A1.
